The values you see were collected from the supplement of paper PMC6965134.

- Assay Protocol: TIMS collisional cross section (CCS, N2) of the lipid ion; higher = larger ion cross section
- Condition Label: sample type: HeLa; ionization mode: positive; one isomer drawn
Measured Quantity: TIMS collisional cross section

Compound	Recorded Measurement
CC/C=C\C/C=C\C/C=C\C/C=C\C/C=C\C/C=C\CCC(=O)OC[C@@H](COC(=O)CCCCCCC/C=C\CCCCCCC)OC(=O)CCCCCCC/C=C\CCCCCCCC [TG 17:1_18:1_22:6] (ion (formula + adduct): [C60H100O6+NH4] 1+)	328.2 Å²
CCCCCCCC/C=C\CCCCCCCC(=O)O[C@H](COCCCCCCCCCCCCCCCC)COP(=O)(O)OCCN [PE O- 16:0@_18:1] (ion (formula + adduct): [C39H78NO7P+H] 1+)	276 Å²
CCCCC/C=C\C/C=C\C/C=C\C/C=C\CCCC(=O)O[C@H](COC(=O)CCCCCCC/C=C\CCCCCC)COP(=O)([O-])OCC[N+](C)(C)C [PC 16:1_20:4] (ion (formula + adduct): [C44H78NO8P+H] 1+)	285.8 Å²
CCCCC/C=C\C/C=C\CCCCCCCC(=O)OC[C@@H](COC(=O)CCCCCCCCCCCCCCCCC)OC(=O)CCCCCCC/C=C\CCCCCCCC [TG 18:0_18:1_18:2] (ion (formula + adduct): [C57H104O6+NH4] 1+)	325.1 Å²

---

# maps each entry to its TIMS collisional cross section
- Assay Protocol: TIMS collisional cross section (CCS, N2) of the lipid ion; higher = larger ion cross section
- Condition Label: sample type: HeLa; ionization mode: positive; one isomer drawn

Molecule	Unit Annotation	TIMS collisional cross section
CCCCCCCC/C=C\CCCCCCCC(=O)OC[C@@H](COC(=O)CCCCCCCCCCC)OC(=O)CCCCCCCCCCCCCCC [TG 12:0_16:0_18:1] (ion (formula + adduct): [C49H92O6+NH4] 1+)	Å²	305.7
CCCCCCCCCCCCCCCCCC(=O)OC[C@@H](COC(=O)CCCCCCCCCCCCCCC)OC(=O)CCCCCCCCCCCCCCC [TG 16:0_16:0_18:0] (ion (formula + adduct): [C53H102O6+NH4] 1+)	Å²	319.9
CCCCCCCCCCCCCC(=O)OC[C@@H](COC(=O)CCCCCCCCCCC)OC(=O)CCCCCCCCCCCCC [TG 12:0_14:0_14:0] (ion (formula + adduct): [C43H82O6+NH4] 1+)	Å²	289
CCCCCCCCCCCCC/C=C/[C@@H](O)[C@H](CO[C@@H]1O[C@H](CO)[C@@H](O)C(O)C1O)NC(=O)CCCCCCCCCCCCCCCCCCCCCCC (stereo partly drawn) [GlcCer d18:1_24:0@] (ion (formula + adduct): [C48H93NO8+H] 1+)	Å²	304.2
CC/C=C\C/C=C\C/C=C\C/C=C\C/C=C\C/C=C\CCC(=O)OC[C@@H](COC(=O)CCCCCCC/C=C\CCCCCCCC)OC(=O)CCCCCCCCC/C=C\CCCCCCCC [TG 18:1_20:1_22:6] (ion (formula + adduct): [C63H106O6+NH4] 1+)	Å²	336.5
CCCCC/C=C\C/C=C\CCCCCCCC(=O)OC[C@@H](COC(=O)CCCCCCC/C=C\CCCCCC)OC(=O)CCCCCCCCCCCCCCCCC [TG 16:1_18:0_18:2] (ion (formula + adduct): [C55H100O6+NH4] 1+)	Å²	319.7
CC/C=C\C/C=C\C/C=C\C/C=C\C/C=C\CCCC(=O)O[C@H](COC(=O)CCCCCCCCCCCCCCC)COP(=O)([O-])OCC[N+](C)(C)C [PC 16:0_20:5@] (ion (formula + adduct): [C44H78NO8P+H] 1+)	Å²	286.9
CC/C=C\C/C=C\C/C=C\C/C=C\C/C=C\CCCC(=O)O[C@H](COC(=O)CCCCCCCCC/C=C\CCCCCC)COP(=O)([O-])OCC[N+](C)(C)C [PC 18:1@_20:5] (ion (formula + adduct): [C46H80NO8P+H] 1+)	Å²	290.2
CCCCCCCC/C=C\CCCCCCCCCCCCCC(=O)N[C@@H](COP(=O)([O-])OCC[N+](C)(C)C)[C@H](O)/C=C/CCCCCCCCCCCCC [SM d18:1_24:1@] (ion (formula + adduct): [C47H93N2O6P+H] 1+)	Å²	305.4
CCCCCCCC/C=C\CCCCCCCC(=O)O[C@H](COC(=O)CCCCCCCCCCCCCCC)COP(=O)([O-])OCC[N+](C)(C)C [PC 16:0_18:1] (ion (formula + adduct): [C42H82NO8P+H] 1+)	Å²	288.37
CCCCCCCCCCCCCCCC(=O)OC[C@@H](COC(=O)CCCCCCCCCCCCCC)OC(=O)CCCCCCCCCCCCCC [TG 15:0_15:0_16:0] (ion (formula + adduct): [C49H94O6+NH4] 1+)	Å²	308
CCCCCC/C=C\CCCCCCCC(=O)OC[C@H](COC(=O)CCCCCCCCC/C=C\CCCCCCCC)OC(=O)CCCCCCC/C=C\CCCCCCCC [TG 16:1_18:1_20:1] (ion (formula + adduct): [C57H104O6+NH4] 1+)	Å²	326
CCCCC/C=C\CCCCCCCC(=O)OC[C@H](COC(=O)CCCCCCC/C=C\CCCCCC)OC(=O)CCCCCCC/C=C\CCCCCC [TG 15:1_16:1_16:1] (ion (formula + adduct): [C50H90O6+NH4] 1+)	Å²	305
